# Tested on: Escherichia coli
# Protocol Text: Antibacterial activity against Escherichia coli ATCC 25922 after 16 to 20 hrs by broth microdilution method
# Format: functional
Below, each entry is listed with its recorded MIC.
Measure: MIC

- CCCCCCc1ccc(-c2ccc(C(=O)N[C@@H](CCCN)C(=O)N[C@H](C(=O)N[C@@H](C)C(=O)N[C@H]3Cc4cn(nn4)CCO[C@@H]4C[C@@H]5OB(O[C@@H]5C4)[C@H](C)NC3=O)[C@@H](C)O)cc2)cc1: 16 µg/mL
- C[C@@H]1NC(=O)[C@@H](NC(=O)[C@H](C)NC(=O)[C@@H](NC(=O)[C@H](CCCN)NC(=O)c2ccc(=O)n(-c3ccccc3)c2)[C@@H](C)O)Cc2cn(nn2)CCO[C@@H]2C[C@@H]3OB1O[C@@H]3C2: > 64 µg/mL
- CCCCCCc1ccc(-c2ccc(C(=O)N[C@@H](CCCN)C(=O)N(C)[C@H](C(=O)N[C@@H](C)C(=O)N[C@H]3Cc4cn(nn4)CCCN4C[C@@H]5OB(O[C@@H]5C4)[C@H](C)NC3=O)[C@@H](C)O)cc2)cc1: 64 µg/mL
- C[C@@H]1NC(=O)[C@@H](NC(=O)[C@H](C)NC(=O)[C@@H](NC(=O)[C@H](CCCN)NC(=O)C#Cc2ccc(-c3ccccc3)cc2)[C@@H](C)O)Cc2cn(nn2)CCO[C@@H]2C[C@@H]3OB1O[C@@H]3C2: > 64 µg/mL

---

The following compounds are listed with their measured Activity values.
# Measured Target: Signal peptidase I (Escherichia coli K-12) (UniProt P00803)
# Sequence (P00803 whole entry): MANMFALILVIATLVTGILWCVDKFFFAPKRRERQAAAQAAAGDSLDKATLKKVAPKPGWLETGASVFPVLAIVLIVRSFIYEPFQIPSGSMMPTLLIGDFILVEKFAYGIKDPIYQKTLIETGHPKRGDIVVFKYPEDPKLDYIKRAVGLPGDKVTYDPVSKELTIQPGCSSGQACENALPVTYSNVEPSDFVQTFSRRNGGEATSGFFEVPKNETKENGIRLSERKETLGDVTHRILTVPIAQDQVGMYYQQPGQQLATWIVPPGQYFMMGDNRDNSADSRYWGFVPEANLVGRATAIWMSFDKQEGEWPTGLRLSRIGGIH
# Protocol Text: Inhibition of Escherichia coli type 1 signal peptidase lepB assessed as residual activity at 5 uM preincubated for 10 mins followed by Dabcyl-VGGTATAYGAFSRPGLE-(EDANS)-OH substrate addition measured after 2 hrs by FRET based assay (reference value: 100%)
Square brackets hold non-standard residues; d marks the D form. Peptide text beside a SMILES is read from it. * marks the point of attachment. Benzoyl(4-(4-hexylphenyl)) = CCCCCCc1ccc(-c2ccc(C(=O)*)cc2)cc1; X1 = C[C@H](N*)B1OC2C[C@@H]3C[C@@H](C3(C)C)[C@]2(C)O1; Orn = NCCC[C@H](N)C(=O)O
Measure: Activity (%)

* CCCCCCc1ccc(-c2c[nH]c3ccc(C(=O)N[C@@H](CCCN)C(=O)N[C@H](C(=O)N[C@@H](C)C(=O)N[C@H]4Cc5cn(nn5)CCO[C@@H]5C[C@@H]6OB(O[C@@H]6C5)[C@H](C)NC4=O)[C@@H](C)O)cc23)cc1 | -6.8
* CCCCCCc1ccc(-c2ccc(C(=O)N[C@@H](CCCN)C(=O)N[C@H](C(=O)N[C@@H](C)C(=O)N[C@H]3Cc4cn(nn4)CCN4C[C@@H]5OB(O[C@@H]5C4)[C@H](C)NC3=O)[C@@H](C)O)cc2)cc1 | 26.7
* CCCCCCc1ccc(-c2ccc(C(=O)N[C@@H](Cc3cnc[nH]3)C(=O)N[C@H](C(=O)N[C@@H](C)C(=O)N[C@H]3Cc4cn(nn4)CCCN4C[C@@H]5OB(O[C@@H]5C4)[C@H](C)NC3=O)[C@@H](C)O)cc2)cc1 | 25
* CCCCCCc1ccc(-c2ccc(C(=O)N[C@@H](CCCN)C(=O)N[C@H](C(=O)N[C@@H](C)C(=O)N[C@@H](CC(N)=O)C(=O)N[C@@H](C)B3OC4C[C@@H]5C[C@@H](C5(C)C)[C@]4(C)O3)[C@@H](C)O)cc2)cc1 (some centres undefined) ({Benzoyl(4-(4-hexylphenyl))}-[Orn]TAN-X1) | 1.8
